Molecular target: acid phosphatase derived from Escherichia blattae (Shimwellia blattae)
Construct: homo-oligomer; 18-residue signal peptide removed
Sequence (I2BB71 19-249): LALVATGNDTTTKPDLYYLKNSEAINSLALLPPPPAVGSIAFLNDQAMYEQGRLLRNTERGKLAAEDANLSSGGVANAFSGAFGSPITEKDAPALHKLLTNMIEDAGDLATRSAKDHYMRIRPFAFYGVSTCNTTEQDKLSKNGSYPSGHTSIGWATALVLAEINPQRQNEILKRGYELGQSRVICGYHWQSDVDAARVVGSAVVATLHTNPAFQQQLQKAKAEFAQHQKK
Format: biochemical, Escherichia blattae JCM 1650
Conditions: purified Escherichia blattae enzyme
metric-name: Effect of the addition of metal ion and inhibitor on enzyme activity

molecule="[Hg+2] [Hg^2+]" test_value=inhibited
molecule="[Cu+2] [Cu^2+]" test_value=inhibited
molecule="[Ag+2] [Ag^2+]" test_value=inhibited
molecule="[Fe+2] [Fe^2+]" test_value=inhibited
molecule="[Pb+2] [Pb^2+]" test_value=inhibited
